Test system: Vero E6 infected with SARS-CoV-2
assayComment: inhibition of SARS-CoV-2 cytopathic effect; higher = more antiviral protection, active = above 15
runParameters: 100 nM; 48 h
readoutKind: inhibition of SARS-CoV-2 cytopathic effect (%)
Numbers only, in %.

{"compound": "Cc1csc2c(N[C@@H](C)CN3CCN(S(=O)(=O)c4ccc(Cl)c(Cl)c4)CC3)ncnc12", "resultValue": 1.73}
{"compound": "CCCCCCCCOc1ccccc1C(=O)Nc1ccc(C(=O)OCC[N+](C)(CC)CC)cc1", "resultValue": 1.35}
{"compound": "O=C(NCCN1CCCCC1)c1ccc(I)cc1 [N-[2-(piperidinylamino)ethyl]-4-iodobenzamide]", "resultValue": -0.15}
{"compound": "Cc1cc(O)ccc1Cl", "resultValue": 1.47}
{"compound": "C[C@@]12C[C@@]3(O)O[C@@H](O1)[C@]1(COC(=O)c4ccccc4)[C@H]3C[C@@]12O[C@@H]1O[C@H](CO)[C@@H](O)[C@H](O)[C@H]1O", "resultValue": 0.1}
{"compound": "CCCCn1c(=O)c2[nH]c(C34CC5CC(CC3C5)C4)nc2n(CCCO)c1=O", "resultValue": 0.93}

Batch lookup, inhibition of SARS-CoV-2 cytopathic effect per entry.
1. Brc1ccc(NC2C3CC4CC(C3)CC2C4)cc1 (centres undefined)
2. CC(C)(C)NCC(O)c1ccccc1Cl (centres undefined)

A:
1: -0.8; 2: -0.63

Batch lookup, inhibition of SARS-CoV-2 cytopathic effect per entry.
1. CC1COc2c(N3CCN(C)CC3)c(F)cc3c(=O)c(C(=O)O)cn1c23 (centres undefined)
2. O=C(c1ccc(/C=C/c2n[nH]c3ccccc23)cc1)N1CCNCC1
3. Cn1c(=O)c2c(ncn2CCO)n(C)c1=O

A:
[0.065, 0.85, -0.66]

Batch lookup, inhibition of SARS-CoV-2 cytopathic effect per entry.
1. CC(N)CCCC(C)(C)O (centres undefined)
2. CO[C@@]1(NC(=O)Cc2cccs2)C(=O)N2C(C(=O)O)=C(COC(N)=O)CS[C@@H]21
3. OCCN1CCN(CC/C=C2/c3ccccc3Sc3ccc(Cl)cc32)CC1
4. C[C@@]1(CO)[C@H](O)CC[C@@]2(C)[C@H]1CC[C@H]1C[C@@H]3C[C@@]12CC[C@]3(O)CO
5. C#C[C@]1(OC(=O)CCCCCC)CC[C@H]2[C@@H]3CCC4=CC(=O)CC[C@@H]4[C@H]3CC[C@@]21C [norethisterone-enanthate]
6. Oc1ccc(Cl)cc1

A:
[2.95, -0.89, -1.94, -2.81, 0.91, 1.68]

Batch lookup, inhibition of SARS-CoV-2 cytopathic effect per entry.
1. O=C(Nc1cc(Oc2cc(F)c(NC(=O)C3(C(=O)Nc4ccc(F)cc4)CC3)cc2F)ccn1)C1CC1
2. CN(C)CCN1C(=O)c2cccc3cc(N)cc(c23)C1=O [amonafide]

A:
3.44
1.57

* * *

Give measured inhibition of SARS-CoV-2 cytopathic effect for each item. Keep answers brief.
Tested on: Vero E6 infected with SARS-CoV-2
assayComment: inhibition of SARS-CoV-2 cytopathic effect; higher = more antiviral protection, active = above 15
runParameters: 8.33 nM; 48 h
One number for each entry, in %.

Example entries begin here.
{"molecule": "O=C(C(c1ccccc1)c1ccccc1)N1CCN(CC(O)COc2cccc3ncccc23)CC1 (stereo not drawn)", "resultValue": 4.84}
{"molecule": "CCc1ccc(Cc2ccc3c(c2)[C@]2(OC3)O[C@H](CO)[C@@H](O)[C@H](O)[C@H]2O)cc1", "resultValue": 0.93}
{"molecule": "CCCCCCCCCCCCCCCCCCCCCCO", "resultValue": -7.8}

Batch lookup, inhibition of SARS-CoV-2 cytopathic effect per entry.
1. Cn1nc(-c2cccc(F)c2)n(C)c1=S
2. C#Cc1cnc2nc(O)n(C(CC)CC)c2n1
3. COc1cc2c(N3CCN(C(=O)Nc4ccc(OC(C)C)cc4)CC3)ncnc2cc1OCCCN1CCCCC1
4. NC(N)=O
5. CN(C)C(=O)Oc1cc(OC(=O)N(C)C)cc(C(O)CNC(C)(C)C)c1 (stereo not drawn)
6. CCOC(=O)[C@H](CCc1ccccc1)N[C@@H](C)C(=O)N1Cc2cc(OC)c(OC)cc2C[C@H]1C(=O)O
7. Cn1c(-c2ccccc2)nnc1S(C)(=O)=O

A:
1.68
-0.65
-4.22
-3.63
-0.79
1.34
-0.41

Batch lookup, inhibition of SARS-CoV-2 cytopathic effect per entry.
1. O=C(O)COCCN1CCN(C(c2ccccc2)c2ccc(Cl)cc2)CC1 (stereo not drawn)
2. Cc1ccccc1/N=N/c1ccc(/N=N/c2c(O)ccc3ccccc23)c(C)c1
3. CCOC(=O)c1c(C)n(C)c2ccc(O)cc12 [mecarbinate]
4. CC(C)NCC(O)c1ccc([N+](=O)[O-])cc1 (stereo not drawn)
5. O=P(O)(O)C(Cl)(Cl)P(=O)(O)O
6. NC(=O)CCCCn1ccc(/N=C(\N)NCC(F)(F)F)n1

A:
1. 1.14
2. -0.01
3. -1.26
4. 0.04
5. 0.27
6. 2.16

Batch lookup, inhibition of SARS-CoV-2 cytopathic effect per entry.
1. NCCc1cc[nH]n1
2. C[C@H](NCc1ccc(OCc2ccccc2F)cc1)C(N)=O [priralfinamide]

A:
[1.07, 7.24]
